Listed here are molecules together with their documented pIC50.
Tested on: pS6 MDA-MB-468
Test: Cellular Activity Assay (phospho-S6 in MDA-MB-468 cells)
Assay type: cell-based
Conditions: Homo sapiens, 2 hr compound incubation, percent pS6-positive cells
Please keep in mind that pIC50 is minus log10 of the molar concentration; only the number is needed.

1) CC1CN(C[C@@H](Nc2ncnc3c(C(N)=O)cccc23)c2ccc(F)c(C(F)(F)F)c2)C1 [Example 46] | 6.37

input: I am curious: what pIC50 value has been reported for N#Cc1cccc([C@@H](CN2CCC2)Nc2ncnc3c(C(N)=O)cccc23)c1 [Example 11] ?
output: 6.42

input: And then NC(=O)c1cccc2c(N[C@H](CN3CCC3)c3ccc(F)c(F)c3F)ncnc12 [Example 19] , what is it?
output: 7.21

* * *

Listed here are compounds together with their documented IC50.
Molecular target: P70S6K (T412E mutant) (Homo sapiens, UniProt P23443, T412E)
Sequence (P23443 1-421 T412E limits assumed): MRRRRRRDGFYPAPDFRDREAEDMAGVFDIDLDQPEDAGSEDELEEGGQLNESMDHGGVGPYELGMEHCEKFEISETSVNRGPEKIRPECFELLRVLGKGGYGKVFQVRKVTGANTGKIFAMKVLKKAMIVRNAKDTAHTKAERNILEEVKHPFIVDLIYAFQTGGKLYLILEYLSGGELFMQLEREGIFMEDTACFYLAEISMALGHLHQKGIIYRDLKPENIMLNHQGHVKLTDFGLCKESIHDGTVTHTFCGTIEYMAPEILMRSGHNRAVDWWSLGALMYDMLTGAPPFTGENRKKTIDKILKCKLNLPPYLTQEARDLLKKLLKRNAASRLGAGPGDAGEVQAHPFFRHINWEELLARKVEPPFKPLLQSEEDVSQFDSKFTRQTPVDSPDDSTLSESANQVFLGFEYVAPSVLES
Assay: p70S6K Enzyme Assay
Conditions: 24 μM ATP, 90 min at 25° C., Caliper mobility shift
Experimental: p70S6K inhibitor compounds were diluted and plated in 96 well plates. […] The proportion of substrate and product (phosphorylated) peptide was analysed on a Caliper Life Sciences Lab Chip 3000, using a pressure of −1.4 psi, and upstream and downstream voltages of −3000 and −700 respectively. […] To assess the inhibitory potential of the compounds, IC50-values were determined, as shown in Chemical Synthesis section above.
Express it in nM; write the number only.

Some solved cases for reference:
1) NC(=O)c1cccc2c(N[C@H](CN3CCC3)c3ccc(Cl)cc3)ncnc12 | 1
2) NC(=O)c1cccc2c(N[C@H](CN3CCC3)c3ccc(F)cc3)ncnc12 | 7.8
3) NC(=O)c1cccc2c(N[C@H](CN3CCC3)c3ccc(F)c(Cl)c3)ncnc12 | 1.3
4) NC(=O)c1cccc2c(N[C@H](CN3CCC3)c3cc(F)cc(C(F)(F)F)c3)ncnc12 | 2.3
5) NC(=O)c1cccc2c(N[C@H](CN3CCC3)c3ccc(Br)cc3)ncnc12 | 1.6
6) NC(=O)c1cccc2c(N[C@H](CN3CCC3)c3ccc(Cl)c(C(F)(F)F)c3)ncnc12 | 0.9
7) NC(=O)c1cccc2c(N[C@H](CN3CCC3)c3ccccc3)ncnc12 | 11
8) NC(=O)c1cccc2c(N[C@H](CN3CCC3)c3ccc(C(F)(F)F)cc3)ncnc12 | 0.8

input: I am curious: what IC50 value has been reported for `NC(=O)c1cccc2c(N[C@H](CN3CC(F)C3)c3ccc(F)c(C(F)(F)F)c3)ncnc12` ?
output: 5

input: And then `NC(=O)c1ccc([C@@H](CN2CCC2)Nc2ncnc3c(C(N)=O)cccc23)cc1` , what is it?
output: 8.6

input: And then `NC(=O)c1cccc2c(N[C@H](CN3CCC3)c3ccc(OC(F)(F)F)c(Cl)c3)ncnc12` , what is it?
output: 2.4

input: And then `NC(=O)c1cccc2c(N[C@H](CN3CCC3)c3ccc(F)c(F)c3F)ncnc12` , what is it?
output: 2.1

input: And then `NC(=O)c1cccc2c(N[C@H](CN3CCC3)c3ccc(F)cc3F)ncnc12` , what is it?
output: 6

input: And then `NC(=O)c1cccc2c(N[C@H](CN3CCC3)c3ccc(F)c(C(F)(F)F)c3)ncnc12` , what is it?
output: 2.4

* * *

Listed here are compounds together with their documented IC50.
Target: P70S6K (T412E mutant) (Homo sapiens, UniProt P23443, T412E)
Assay: p70S6K Enzyme Assay
Settings: 24 μM ATP, 90 min at 25° C., Caliper mobility shift
Express it in nM; write the number only.

Some solved cases for reference:
1. CC(C)c1ccc([C@@H](CN2CCC2)Nc2ncnc3c(C(N)=O)cccc23)cc1 | 0.8
2. NC(=O)c1cccc2c(N[C@H](CN3CCC3)c3cccc(C(F)(F)F)c3)ncnc12 | 1.4

input: Checklist item: IC50 tested on P70S6K (T412E mutant) (Homo sapiens, UniProt P23443, T412E), entry `N#Cc1ccc([C@@H](CN2CCC2)Nc2ncnc3c(C(N)=O)cccc23)cc1` , value?
output: 1.3

input: And then `CC1CN(C[C@@H](Nc2ncnc3c(C(N)=O)cccc23)c2ccc(F)c(C(F)(F)F)c2)C1` , what is it?
output: 4.9

* * *

System: pS6 MDA-MB-468
Assay: Cellular Activity Assay (phospho-S6 in MDA-MB-468 cells)
Assay type: cell-based
Details: Homo sapiens, 2 hr compound incubation, percent pS6-positive cells
pIC50: −log10 of the molar value.
Classification field: Fulfilled = pIC50 at or over 7; Not fulfilled = pIC50 under 7.

1) NC(=O)c1cccc2c(N[C@H](CN3CCC3)c3cccc(C(F)(F)F)c3)ncnc12 | Fulfilled

input: # check: pIC50 of `NC(=O)c1cccc2c(N[C@H](CN3CCC3)c3ccc(OC(F)(F)F)cc3)ncnc12` is greater than or equal to 7
output: Not fulfilled

input: And then CC1CCN1C[C@@H](Nc1ncnc2c(C(N)=O)cccc12)c1ccc(F)c(C(F)(F)F)c1 (stereo partly shown) , what is it?
output: Not fulfilled

input: And then `NC(=O)c1cccc2c(N[C@H](CN3CCC3)c3ccccc3)ncnc12` , what is it?
output: Not fulfilled

input: And then `NC(=O)c1cccc2c(N[C@H](CN3CCC3)c3cc(F)ccc3Cl)ncnc12` , what is it?
output: Not fulfilled

input: And then `NC(=O)c1cccc2c(N[C@H](CN3CCC3)c3cccc(Br)c3)ncnc12` , what is it?
output: Fulfilled

input: And then `NC(=O)c1cccc2c(N[C@H](CN3CCC3)c3ccc(Cl)c(C(F)(F)F)c3)ncnc12` , what is it?
output: Fulfilled

input: And then `NC(=O)c1cc(F)cc2c(N[C@H](CN3CCC3)c3ccc(F)c(C(F)(F)F)c3)ncnc12` , what is it?
output: Fulfilled

* * *

Listed here are compounds together with their documented pIC50.
Biological target: Akt1 (Homo sapiens, UniProt P31749)
Sequence (P31749 whole entry): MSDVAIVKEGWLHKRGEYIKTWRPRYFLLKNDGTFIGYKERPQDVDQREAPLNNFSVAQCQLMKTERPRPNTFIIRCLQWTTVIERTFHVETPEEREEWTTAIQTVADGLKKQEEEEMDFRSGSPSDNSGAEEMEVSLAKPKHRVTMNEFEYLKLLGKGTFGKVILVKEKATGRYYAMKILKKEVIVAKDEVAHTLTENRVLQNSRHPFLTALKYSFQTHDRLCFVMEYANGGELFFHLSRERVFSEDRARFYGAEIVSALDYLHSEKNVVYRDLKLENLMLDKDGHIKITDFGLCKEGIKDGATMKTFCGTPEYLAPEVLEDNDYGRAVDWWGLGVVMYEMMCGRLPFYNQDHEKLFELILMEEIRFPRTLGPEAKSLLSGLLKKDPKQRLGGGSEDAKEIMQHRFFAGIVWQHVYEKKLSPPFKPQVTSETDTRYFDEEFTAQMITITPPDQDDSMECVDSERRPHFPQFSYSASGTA
Please keep in mind that pIC50 is minus log10 of the molar concentration; only the number is needed.

Some solved cases for reference:
1) NC(=O)c1cccc2c(N[C@H](CN3CCC3)c3ccc4c(c3)OCO4)ncnc12 | 6.92
2) NC(=O)c1cccc2c(N[C@H](CN3CC(F)C3)c3ccc(F)c(C(F)(F)F)c3)ncnc12 | 7.80
3) NC(=O)c1cccc2c(N[C@H](CN3CCC3)c3cccc(C(F)(F)F)c3)ncnc12 | 8.25

input: Checklist item: pIC50 tested on Akt1 (Homo sapiens, UniProt P31749), entry `NC(=O)c1cccc2c(N[C@H](CN3CCC3)c3cc(F)ccc3F)ncnc12` , value?
output: 7.01

input: And then `NC(=O)c1cccc2c(N[C@H](CN3CCC3)c3ccc(F)cc3F)ncnc12` , what is it?
output: 7.08

input: And then `NC(=O)c1cccc2c(N[C@H](CN3CCC3)c3ccc(F)c(C(F)F)c3)ncnc12` , what is it?
output: 8.14

input: And then `NC(=O)c1cccc2c(N[C@H](CN3CCC3)c3ccc(C(F)(F)F)cc3)ncnc12` , what is it?
output: 7.77

input: And then `NC(=O)c1cccc2c(N[C@H](CN3CCC3)c3c(F)cccc3F)ncnc12` , what is it?
output: 7.04

* * *

Measured pIC50 (Akt1 (Homo sapiens, UniProt P31749))
Please keep in mind that pIC50 is minus log10 of the molar concentration; only the number is needed.

Some solved cases for reference:
1) N#Cc1cc([C@@H](CN2CCC2)Nc2ncnc3c(C(N)=O)cccc23)ccc1F [Example 39] | 7.08
2) NC(=O)c1cc(F)cc2c(N[C@H](CN3CCC3)c3ccc(F)c(C(F)(F)F)c3)ncnc12 [Example 45] | 8.23
3) NC(=O)c1cccc2c(N[C@H](CN3CCC3)c3cc(F)cc(C(F)(F)F)c3)ncnc12 [Example 6] | 8.04

input: Checklist item: pIC50 tested on Akt1 (Homo sapiens, UniProt P31749), entry COc1cc([C@@H](CN2CCC2)Nc2ncnc3c(C(N)=O)cccc23)ccc1F [Example 43] , value?
output: 7.68

* * *

Biological target: Aurora B (Homo sapiens)
Construct: GST-Aurora B (1-344 amino acids); GST (N); purchased Carna Biosciences 05-102
Sequence (Q96GD4 whole entry, the tested form may be a part): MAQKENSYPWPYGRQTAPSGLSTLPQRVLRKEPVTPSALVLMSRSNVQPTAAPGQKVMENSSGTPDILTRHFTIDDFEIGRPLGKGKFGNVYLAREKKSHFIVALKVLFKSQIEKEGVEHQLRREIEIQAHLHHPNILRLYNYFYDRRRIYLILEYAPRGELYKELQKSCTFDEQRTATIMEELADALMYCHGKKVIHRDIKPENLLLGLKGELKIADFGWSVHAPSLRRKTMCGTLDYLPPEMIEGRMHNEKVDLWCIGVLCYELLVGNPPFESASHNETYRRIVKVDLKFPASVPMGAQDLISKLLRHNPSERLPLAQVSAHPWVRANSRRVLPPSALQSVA
Sequence (Q9NQS7 803-918 partner limits assumed): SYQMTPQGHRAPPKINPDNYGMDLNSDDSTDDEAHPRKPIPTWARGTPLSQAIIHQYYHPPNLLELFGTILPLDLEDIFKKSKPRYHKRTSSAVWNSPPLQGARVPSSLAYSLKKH
Experiment: Aurora B Kinase Assay
Format: biochemical
Conditions: GST-Aurora B (1-344), 10 uM ATP, 90 min at 25 C
test readout: IC50 (nM)
Express it in nM; write the number only.

Some solved cases for reference:
1) NC(=O)c1cccc2c(N[C@H](CN3CCC3)c3c(F)cccc3F)ncnc12 | 170
2) N#Cc1cc([C@@H](CN2CCC2)Nc2ncnc3c(C(N)=O)cccc23)ccc1F | 650
3) NC(=O)c1cc(F)cc2c(N[C@H](CN3CCC3)c3ccc(F)c(C(F)(F)F)c3)ncnc12 | 290
4) NC(=O)c1cccc2c(N[C@H](CN3CCC3)c3ccc(Cl)cc3F)ncnc12 | 69
5) CC1CCN1C[C@@H](Nc1ncnc2c(C(N)=O)cccc12)c1ccc(F)c(C(F)(F)F)c1 (stereo partly shown) | 120

# context switch: different compound, same IC50
input: I am curious: what IC50 value has been reported for `NC(=O)c1cccc2c(N[C@H](CN3CCC3)c3ccc(F)c(C(F)(F)F)c3)ncnc12` ?
output: 285
